ASSAYED SYSTEM: T1, human C3a (human, UniProt P01024 672-748)
T1 construct: domain: C3a
T1 sequence (P01024 672-748 limits assumed): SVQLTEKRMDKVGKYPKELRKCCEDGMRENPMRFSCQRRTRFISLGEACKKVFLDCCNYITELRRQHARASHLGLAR
EXPERIMENT: Octet analysis
MEASURED ENDPOINT: binding result

| BINDER | RESULT |
| --- | --- |
| BNJ346 (antibody, V domains shown, also called BNJ346 humanized anti-C5a antibody) VH: QVQLVQSGAEVKKPGASVKVSCKASGYTFTDYSMDWVRQAPGQGLEWVGAIHLNTGYTNYNQKFKGRVTITADESTSTAYMELSSLRSEDTAVYYCARGFYDGYSPMDYWGQGTTVTVSS VL: DIVMTQSPDSLAVSLGERATINCRASESVDSYGNSFMHWYQQKPGQPPKLLIYRASNLESGVPDRFSGSGSGTDFTLTISSLQAEDVAVYYCQQSNEDPYTFGGGTKVEIKR | no binding |
| BNJ354 (antibody, V domains shown, also called BNJ354 humanized anti-C5a antibody) VH: QVQLVQSGAEVKKPGASVKVSCKASGYTFTDYSMDWVRQASGKGLEWMGAIHLNTGYTNYNQKFKGRVTMTRDTSTSTVYMELSSLRSEDTAVYYCARGFYDGYSPMDYWGQGTTVTVSS VL: DIVMTQSPDSLAVSLGERATINCRASESVDSYGNSFMHWYQQKPGQPPKLLIYRASNLESGVPDRFSGSGSGTDFTLTISSLQAEDVAVYYCQQSNEDPYTFGGGTKVEIKR | no binding |
| BNJ347 (antibody, V domains shown, also called BNJ347 humanized anti-C5a antibody) VH: QVQLVQSGAEVKKPGASVKVSCKASGYTFTDYSMDWVRQASGKGLEWMGAIHLNTGYTNYNQKFKGRVTITADESTSTAYMELSSLRSEDTAVYYCARGFYDGYSPMDYWGQGTTVTVSS VL: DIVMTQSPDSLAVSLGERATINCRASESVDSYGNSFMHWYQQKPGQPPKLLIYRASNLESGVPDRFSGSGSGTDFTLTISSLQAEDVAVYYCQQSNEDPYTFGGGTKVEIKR | no binding |
